Provenance of the data: patent US11524012B1

# PROCEDURE_DETAILS: Pharmacokinetic parameters in preclinical species (all species)
# Assay type: in vivo
# CONDITION: ICR (mouse), SD (rat), dog, monkey, plasma, intravenous, mice, rats, dogs and monkeys, read-out: steady-state volumes of distribution (Vss)
VALUE_KIND: Vd

SMILES_TEXT	VALUE_KIND	REPORTED_VALUE
Cc1cnc(CNC(=O)c2c(=O)c3ccc(N4CCCN(C)CC4)nc3n3c2sc2ccccc23)cn1	Vd	0.15 to 22 L/kg

* * *

# PROCEDURE_DETAILS: Toxicokinetics in rat toxicity study (IV infusion)
# Format: in vivo
# CONDITION: plasma; rat, 1 hour IV infusion, 5 mg/kg/dose, Male, Day 1 (first dose)
# Protocol: Rats: Pharmacokinetic properties of Compound I were evaluated in a rat toxicity study across a range of IV doses: 5, 10, and 20 mg/kg/dose administered as ready-to-use formulation (see Example 1). Compound I was administered by intravenous infusion via a catheter placed into the lateral tail vein once per week over a period of 1 hour on Days 1, 8, and 15. […] The TK parameters were determined for Compound I from the mean plasma concentrations per gender and group, using a non-compartmental method.
VALUE_KIND: Cmax (ng/mL)

SMILES_TEXT	REPORTED_VALUE
Cc1cnc(CNC(=O)c2c(=O)c3ccc(N4CCCN(C)CC4)nc3n3c2sc2ccccc23)cn1	3360

* * *

# PROCEDURE_DETAILS: Pharmacokinetic study in patients with advanced hematologic cancers (IV infusion, LC/MS/MS)
# Type: in vivo, human
# CONDITION: human, plasma; 170 mg/m^2 (lyophilized formulation), 1 hour IV infusion, first dose (first cycle), N 3, median
VALUE_KIND: Tmax (min)

COMPOUND	VALUE_KIND	UNIT	REPORTED_VALUE
Cc1cnc(CNC(=O)c2c(=O)c3ccc(N4CCCN(C)CC4)nc3n3c2sc2ccccc23)cn1 [Compound I]	Tmax	min	31.2

* * *

# PROCEDURE_DETAILS: Toxicokinetics in rat toxicity study (IV infusion)
# Assay type: in vivo
# CONDITION: plasma; rat, 1 hour IV infusion, 10 mg/kg/dose, Male, Day 1 (first dose); read-out: T1/2 (converted)
VALUE_KIND: half-life (h)

SMILES_TEXT	UNIT	REPORTED_VALUE
Cc1cnc(CNC(=O)c2c(=O)c3ccc(N4CCCN(C)CC4)nc3n3c2sc2ccccc23)cn1	h	8.1

* * *

# PROCEDURE_DETAILS: Toxicokinetics in rat toxicity study (IV infusion)
# Format: in vivo
# CONDITION: plasma; rat, 1 hour IV infusion, 5 mg/kg/dose, Female, Day 1 (first dose); read-out: T1/2 (converted)

COMPOUND	half-life
Cc1cnc(CNC(=O)c2c(=O)c3ccc(N4CCCN(C)CC4)nc3n3c2sc2ccccc23)cn1 [Compound I]	9.3 h

* * *

# Tested on: various cancer cell lines
# PROCEDURE_DETAILS: Cell viability by Alamar Blue assay
# Assay type: cell-based
# CONDITION: Homo sapiens, MCF7, MCF 7, Breast
pEC50: −log10 of the molar value.

SMILES_TEXT	pEC50
Cc1cnc(CNC(=O)c2c(=O)c3ccc(N4CCCN(C)CC4)nc3n3c2sc2ccccc23)cn1	6.46

* * *

# PROCEDURE_DETAILS: Pharmacokinetic study in patients with advanced hematologic cancers (IV infusion, LC/MS/MS)
# Format: in vivo, human
# CONDITION: human, plasma; 250 mg/m^2 (lyophilized formulation), 1 hour IV infusion, first dose (first cycle), N 2

SMILES_TEXT	UNIT	Cmax
Cc1cnc(CNC(=O)c2c(=O)c3ccc(N4CCCN(C)CC4)nc3n3c2sc2ccccc23)cn1	µg/mL	1.36
